IC50 tested on Mu-type opioid receptor (Bos taurus): recorded values
Sequence (P79350 whole entry): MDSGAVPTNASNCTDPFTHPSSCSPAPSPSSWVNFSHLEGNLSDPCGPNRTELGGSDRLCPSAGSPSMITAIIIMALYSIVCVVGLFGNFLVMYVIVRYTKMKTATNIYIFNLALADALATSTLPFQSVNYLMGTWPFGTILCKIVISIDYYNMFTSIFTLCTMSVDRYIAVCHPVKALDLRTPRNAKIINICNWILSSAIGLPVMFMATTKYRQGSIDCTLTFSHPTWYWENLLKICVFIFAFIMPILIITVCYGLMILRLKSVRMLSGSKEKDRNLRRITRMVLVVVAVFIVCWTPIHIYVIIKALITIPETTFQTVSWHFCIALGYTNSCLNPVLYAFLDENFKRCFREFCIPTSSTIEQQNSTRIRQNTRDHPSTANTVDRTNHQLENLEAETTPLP

CN1CC[C@]23c4c5ccc(O)c4O[C@H]2C(=O)CC[C@@]3(NC(=O)CSSCC(=O)N[C@@]23CCC(=O)[C@@H]4Oc6c(O)ccc7c6[C@@]42CCN(C)[C@@H]3C7)[C@H]1C5
0.4 nM

Now for a further molecule.
Provide value of IC50 for this record tested with Mu-type opioid receptor (Bos taurus): `O=C(CSSCC(=O)N[C@@]12CCC(=O)[C@@H]3Oc4c(O)ccc5c4[C@@]31CCN(CC1CC1)[C@@H]2C5)N[C@@]12CCC(=O)[C@@H]3Oc4c(O)ccc5c4[C@@]31CCN(CC1CC1)[C@@H]2C5`
3.29 nM

src = ChEMBL document CHEMBL1127738
